- Test system: Yersinia pseudotuberculosis YPIII
- measurement protocol: Inhibition of T3S in Yersinia pseudotuberculosis YPIII expressing yopE-luxAB at 25 uM after 3 hrs by luciferase reporter gene assay
Label scheme for inhibition: lower than 30% is 0 (no), 30% and above is 1 (yes).

smiles structure	class name
COc1ccc(Br)c(C(=O)N/N=C/c2ccc(Cl)cc2O)c1	1 (yes)
COc1ccc(C(=O)N/N=C/c2cc(F)cc(Cl)c2O)cc1OC	0 (no)
O=C(N/N=C/c1cc(I)cc(I)c1O)c1cc(Cl)cc(Cl)c1	0 (no)
O=C(N/N=C/c1c(O)cc(O)cc1O)c1sc2ccccc2c1Cl	1 (yes)
CC(C)(C)c1ccc(O)c(/C=N/NC(=O)c2ccc(Br)cc2)c1	1 (yes)
COc1ccc(Br)c(C(=O)N/N=C/c2cc([N+](=O)[O-])cc([N+](=O)[O-])c2O)c1	0 (no)
O=C(N/N=C/c1cc(F)cc(Cl)c1O)c1cc(Cl)cc(Cl)c1	0 (no)
CCN(CC)c1ccc(/C=N/NC(=O)COc2ccc(F)cc2)c(O)c1	1 (yes)
COc1ccc(Br)c(/C=N/NC(=O)CC#N)c1O	0 (no)
O=C(N/N=C/c1cc([N+](=O)[O-])cc([N+](=O)[O-])c1O)c1ccc(Br)cc1	0 (no)
